Test: label from the status in PepcDB records

{"columns": ["seq.string", "protein production"],
 "data": [
  ["MKFKTNKLSLNLVLASSLLAASIPAFAVTGDTDQPIHIESDQQSLDMQGNVVTFTGNVIVTQGTIKINADKVVVTRPGGEQGKEVIDGYGKPATFYQMQDNGKPVEGHASQMHYELAKDFVVLTGNAYLQQVDSNIKGDKITYLVKEQKMQAFSDKGKRVTTVLVPSQLQDKNNKGQTPAQKKGN", "not failed"],
  ["MMARVEKLRELMKENNLQGFLVTSPYNLRYLTNFTGTTGLAMITLDKAFFVTDFRYTEQAAEQATGFTIVKNTGHIFDEVADLAERLQLDNLAFEETQVSFADYSLLEEILPCELVPVMGLIEELR", "not failed"],
  ["MSELGNRAKDQKKIYQRWAPVYDRVYRGILRDGHRKLAGLAAAAGTDILEIGTGTGLTLAHYPSRCRVTGIDISEHMIARAREKVRRENLRHVRALEVMDAHVLRFADKSFDVVCLPFVITLIPEPERALDECARVLRPGGEIILASKLGDGAGLQGAIEAAVAPLVRHIGWSSAFRIHRIVAWAERRGDFSTAEILPVFPNGFFKIVRLKQRGFSA", "failed"],
  ["MTLKPTQQRLLLMLGWLHLQCGQPRRAQVLLEALLSVAPERRDGRRALLLALLQQGLGEPAVRLCRQLQEDGEEEPGLWRCLSRAEQLAGRLDAARAAHARALELEARELEHHHHHH", "not failed"],
  ["MAWMFLLLAAAFEVTFAMGMKYAEGFTRPWPSLLTVVAAVGGIYFLTLAMRELPVSVAYPIWTAIGSLGTVLLGCLLLGESLTAVKLVSVGLIVAGVAGLK", "failed"],
  ["MKTSVKFETIFPLTTAPLIQCITNEITCESMANALLYIDAKPIMADDPREFPQMFQQTSALVLNLGHLSQEREQSLLAASDYARQVNKLTVVDLVGYGASDIRNEVGEKLVHNQPTVVKGNLSEMRTFCQLVSHGRGVDGSPLDQSEEAIEELIQALRQQTQKFPQTVFLATGIQDVLVSQEQVIVLQNGVPELDCFTGTGDLVGALVAALLGEGNAPMTAAVAAVSYFNLCGEKAKTKSQGLADFRQNTLNQLSLLMKEKDWFEAVKGRVL", "not failed"],
  ["MPNAIFFYRIQRWLYLHHIPFLPKLIQLLIFLIYNTKITADSKIGKGSYFVCKGISTVLIPGTEIGENCVLGLRFSTVRKFPYKNVPKIGNNVFIGPNVVICGPVEIGDNCIVAANSFVDKSLRGG", "failed"],
  ["MMYRNQCTAKEKLMNRINEVSFAVNDVLLYLDTHPCCEEAISFYQECEQERQKLLKEYAQCYGPLTVDAALESGGDTWKWVQQPFPWETEGGCRLEHHHHHH", "not failed"],
  ["MPDPAAPGTLRPGGRTARIREAVLLAAGDALAADGFDALDLGEIARRAGVGKTTVYRRWGTPGGLAADLLADMAEQSLPRADTGALEEDLRANARLVVRTLDDPRQGRLFRALIAASLCNEQAAEALHRFYAVRVDEWAGCVRDAVARGEVPDGTDPHGVVAAVSAPLYYALLNTGRSLTEADADRAARAASTAARAGVWVTG", "not failed"],
  ["MIEVAEIIAREIRRGKIVEIGVGFYLEVAKRLRESGIDILVVDINEKAINYARKQGIKGVVDDIFNPTLGIYKDAKAIYSIRPAPEMMKPLLDLARKLKIPLYIVPLTGDRTPNGMKLINYKGIPIYKWEP", "not failed"],
  ["MGKEYVVIGLGRFGGSIVRELNALDMDVMAIDHDENRVNEYSDIATHAVVADTTDEAVMKSLGIRNFDHVIVAIGENIQSSTLTTLILKELGVKKVTAKAQNDYHAKILNKIGADTVVHPERDMGRRIAHNVASASVLDYLELADEHSIVELKATEKMAGQSIIDLDIRAQYGINIIAIKRGKEFIISPNPNINLEIGDILIMIGHDNDLNRFEKNIATR", "failed"],
  ["KVSVNDIMVPRNEIVGIDINDDWKSIVRQLTHSPHGRIVLYRDSLDDAISMLRVREAYRLMTEKKEFTKEIMLRAADEIYFVPEGTPLSTQLVKFQRNKKKVGLVVDEYGDIQGLVTVEDILEEIVGDFT", "not failed"],
  ["MLKPLVLSDSSPVRPRDLTLLDQEEAGLVSTFINRPPIDIFKILPSKDDPDWPSFQQILSKFPDTEHLCPDGGLVNNSFILDIVLPQKWIDHRVCNPRFFQSIVSTTCYFMGFVFYADLNLGFMHFSPFHIAII", "failed"],
  ["MPKPGILKSKSMFCVIYRSSKRDQTYLYVEKKDDFSRVPEELMKGFGQPQLAMILPLDGRKKLVNADIEKVKQALTEQGYYLQLPPPPEDLLKQHLSVMGQKTDDTNK", "not failed"],
  ["PSKKYVVDIWSDFVCPWCWIAKRRFENALNRSGMQDDVQVNVRAYRLAANQAPEPMIGALKRKLGNPASADSMMSTVSKYGRADGLDYRFDTMMFGDTADAHILVKAVEDTAVKKRLVEALYEQSTSHGRSLFDRSSLEAIAREVGVSDESIQLAWSSVELRNEMKDDESFAAQLGSGVPLFVFDSSFSVSGAQPDAVFLEALNKMVANSNPE", "not failed"],
  ["GDGNITTENIPVSEYDCLELEGGGMVVNYTQSDAPEGLEIKTDRNIFEKYEFNVENHKLKIRPKKEFRKHTNFRPTEFMVTANSRNLKKLAAAGSTHVNINSPLQAEEFEAGLAGSGIIQFHDTASFTNLKIEIAGSGDFVGHKVYCEELNGDMAGSNTIVLGGTVGIAEFSIAGSGTVRAFDCTMDELECKIAGSGDIEAFVVNKIKAEIAGSGSVKYKGDPQDIQKKVMGSGKIEKVE", "not failed"]
]}
